Target: sigma receptors
Experiment: Radioligand competition experiments in submaxillary gland membrane homogenate
Conditions: radioligand 3H-DTG (5 nM); rabbit submaxillary gland membranes; 4° C., 60 minutes; spiperone 25 nM; mean ± spread; read-out: averaged IC50
ASSAY ENDPOINT: IC50

The recorded IC50 for CN(Cc1cc(Br)cc(Br)c1N)C1CCCCC1 [bromhexine] is 690 nM

====

Molecular target: sigma-binding site
Assay: 3H-DTG radioligand saturation binding (Scatchard plot) in submaxillary gland membrane homogenate
Conditions: single binding site; membrane homogenate of acini cells from rabbit submaxillary gland; 4° C., 60 min; spiperone 25 nM
ASSAY ENDPOINT: pKd
pKd is defined as minus the log10 of a concentration measured in mol/L.

The recorded pKd for Cc1ccccc1NC(=N)Nc1ccccc1C [3H-DTG] is 8.22

Hey, just so you know, these numbers are from patent US5387614A.
